Test: Water solubility of freeze-dried compounds in water (observation and HPLC)
Residues, ends and D or L forms follow the SMILES beside them. *: point of attachment. Doxorubicin(3'-N) = COc1cccc2c1C(=O)c1c(O)c3c(c(O)c1C2=O)C[C@@](O)(C(=O)CO)C[C@@H]3O[C@H]1C[C@H](N*)[C@H](O)[C@H](C)O1; MaleimidoPEG4propanoyl = O=C1C=CC(=O)N1CCOCCOCCOCCOCCC(=O)*; Butanoyl(4-maleimido) = O=C1C=CC(=O)N1CCCC(=O)*; Propanoyl(3-maleimido) = O=C1C=CC(=O)N1CCC(=O)*; X1 = O=C1C=CC(=O)N1CCOCCOCCOCCC(=O)*; PEG6 = NCCOCCOCCOCCOCCOCCOCCC(=O)O; PEG3 = NCCOCCOCCOCCC(=O)O
Field: solubility. Provide a value for each of the molecules that follow.

The following molecules have reported results that may help.
COc1cccc2c1C(=O)c1c(O)c3c(c(O)c1C2=O)C[C@@](O)(C(=O)CO)C[C@@H]3O[C@H]1C[C@H](NC(=O)[C@H](CC(C)C)NC(=O)[C@H](CC(N)=O)NC(=O)[C@H](C)NC(=O)[C@H](C)NC(=O)[C@H](CCC(=O)O)NC(=O)CCOCCOCCOCCOCCOCCOCCNC(=O)CCN2C(=O)C=CC2=O)[C@H](O)[C@H](C)O1 [QHL-057] ({Propanoyl(3-maleimido)-PEG6}-EAANL-{Doxorubicin(3'-N)}): > 25 mg/mL
COc1cccc2c1C(=O)c1c(O)c3c(c(O)c1C2=O)C[C@@](O)(C(=O)CO)C[C@@H]3O[C@H]1C[C@H](NC(=O)[C@H](CC(C)C)NC(=O)[C@H](CC(N)=O)NC(=O)[C@H](C)NC(=O)[C@H](C)NC(=O)[C@H](CC(=O)O)NC(=O)CCOCCOCCOCCOCCOCCOCCNC(=O)CCN2C(=O)C=CC2=O)[C@H](O)[C@H](C)O1 [QHL-060] ({Propanoyl(3-maleimido)-PEG6}-DAANL-{Doxorubicin(3'-N)}): > 25 mg/mL
COc1cccc2c1C(=O)c1c(O)c3c(c(O)c1C2=O)C[C@@](O)(C(=O)CO)C[C@@H]3O[C@H]1C[C@H](NC(=O)[C@H](CC(C)C)NC(=O)[C@H](CC(N)=O)NC(=O)[C@H](C)NC(=O)[C@H](C)NC(=O)[C@H](CC(=O)O)NC(=O)CCOCCOCCOCCOCCN2C(=O)C=CC2=O)[C@H](O)[C@H](C)O1 [QHL-035] (MaleimidoPEG4propanoyl-DAANL-{Doxorubicin(3'-N)}): > 25 mg/mL
COc1cccc2c1C(=O)c1c(O)c3c(c(O)c1C2=O)C[C@@](O)(C(=O)CO)C[C@@H]3O[C@H]1C[C@H](NC(=O)[C@H](CC(C)C)NC(=O)[C@H](CC(N)=O)NC(=O)[C@H](C)NC(=O)[C@H](C)NC(=O)[C@H](CC(=O)O)NC(=O)CCOCCOCCOCCN2C(=O)C=CC2=O)[C@H](O)[C@H](C)O1 [QHL-034] (X1-DAANL-{Doxorubicin(3'-N)}): > 20 mg/mL

// moving on: another record for solubility
Input COc1cccc2c1C(=O)c1c(O)c3c(c(O)c1C2=O)C[C@@](O)(C(=O)CO)C[C@@H]3O[C@H]1C[C@H](NC(=O)[C@H](CC(C)C)NC(=O)[C@H](CC(N)=O)NC(=O)[C@H](C)NC(=O)[C@H](C)NC(=O)CCOCCOCCOCCNC(=O)CCCN2C(=O)C=CC2=O)[C@H](O)[C@H](C)O1 [QHL-102] ({Butanoyl(4-maleimido)-PEG3}-AANL-{Doxorubicin(3'-N)}) . Output solubility: > 10 mg/mL

Source: patent US11319341B2
